Source of measurements: PubChem BioAssay (NCI)

assay: NCI Yeast Anticancer Drug Screen. Data for the sgs1 mgt1 strain (AID 161);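 further: 0% = growth of cultures given vehicle only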; settings: S. cerevisiae sgs1 mgt1 strain, at 50.0 µM, stronger effect = higher value
About 79,000 compounds went through this panel and 15% of them were active in at least one assay; those are over-represented in the sample as a whole.
Endpoint: growth inhibition (%)
The reply should contain only the number, in %.

Worked cases, growth inhibition given:
COC1=CC(=O)C(C)=CC1=O :: 3.5
O=C(CCSC(=S)Nc1ccc(Cl)cc1)NNc1ccccc1 :: -0.65
NC(=S)NNc1ccccc1 :: -0.05
CCOc1ccc(Nc2nc(C(Cl)(Cl)Cl)cc(C(Cl)(Cl)Cl)n2)cc1CN(CC)CC :: 99

Input line: Give growth inhibition for O=S(=O)(CCS(=O)(=O)c1ccccc1)c1ccccc1
Output line: -22.9

Input line: Please indicate growth inhibition recorded for CCCC(C)OS(=O)(=O)c1ccc(C)cc1 (configuration not stated)
Output line: 0.75

Input line: Indicate its recorded growth inhibition; the compound in question is CCCCCCCCC(=O)O (tested in a mixture with another compound)
Output line: 9.95

Input line: Report growth inhibition for N#CC1CC2c3ccccc3C1([N+](=O)[O-])c1ccccc12 (configuration not stated)
Output line: 12.8

Input line: State its growth inhibition for this compound: CON(C)c1nc(N(C)OC)nc(N(C)OC)n1
Output line: -28.8

Input line: Consider the compound COc1ccc(-c2cc(=O)c3ccc(O)cc3o2)c(OC)c1OC and give its recorded growth inhibition.
Output line: -8.35

Input line: Identify measured growth inhibition corresponding to C/C(=N\NC(=S)Nc1ccc([N+](=O)[O-])cc1S(=O)(=O)O)c1ccccn1
Output line: -5.85

Input line: Consider the compound O=c1[nH]c2cc(Cl)ccc2nc1/C=C(\O)c1ccccc1 and give its recorded growth inhibition.
Output line: -5.9

* * *

assay: NCI Yeast Anticancer Drug Screen. Data for the mlh1 rad18 strain (AID 175); conditions: S. cerevisiae mlh1 rad18 strain growth inhibition; at 50.0 µM; stronger effect = higher value
Compounds without any hit were thinned out: in the full panel of roughly 79,000, 15% have a hit.
Please enter 1.0 where growth inhibition is greater than or equal to 10%, and 0.0 where it is lower.

As a guide, the following entries are already answered.
Cc1ccc(C(=O)c2ccccc2Cc2ccc3ccccc3c2)cc1 :: 0.0
NC(=O)c1nnc2ccc(F)cc2c1N :: 0.0
CCCc1ccc(N=Nc2ccc(C(=O)O)cc2)cc1 :: 0.0
C=CCn1c(=S)sc2c(=O)[nH]cnc21 :: 1.0
Cc1cc(=O)c2cc(N=Cc3ccc(N(C)C)cc3)ccc2o1 :: 1.0

Input line: Does CCOC(=O)c1ccc(NC(C)=O)cc1 have a reported growth inhibition of at least 10%?
Output line: 1.0

Input line: Item CCc1cc(CC)n2cnnc2n1 with growth inhibition of 10% or above?
Output line: 0.0

Input line: Textbook exercise: given the entry CC(NC(=O)OCc1ccccc1)C(=O)Nc1ccc(C(=O)O)c(O)c1 (configuration not stated) , state whether its growth inhibition is greater than or equal to 10%.
Output line: 0.0

Input line: Dear colleague, could you confirm whether COC(=O)c1sc(C(=O)OC)c2c1CSC2 has growth inhibition at or above 10%?
Output line: 1.0

Input line: Threshold query (growth inhibition >= 10%) on c1ccc(SCCP(CCP(c2ccccc2)c2ccccc2)c2ccccc2)cc1 (configuration not stated)
Output line: 1.0

Input line: Tell me whether growth inhibition is at least 10% here: CSc1ccc(NC(=O)N(Cc2ccccc2)c2ccccc2)cc1
Output line: 1.0

Input line: Say whether CC(=O)Oc1ccc2c(OC(C)=O)c(C)cc(OC(C)=O)c2c1 shows growth inhibition of 10% or more.
Output line: 1.0

* * *

growth inhibition overview
assay: NCI Yeast Anticancer Drug Screen. Data for the bub3 strain (AID 167); conditions: S. cerevisiae bub3 mutant strain, at 50.0 µM, stronger effect = higher value
Compounds without any hit were thinned out: in the full panel of roughly 79,000, 15% have a hit.
Reply numerically in %, unit not repeated.

Study these solved cases before continuing.
N#Cc1c(O)cc(=O)n2c1[nH]c1ccccc12 :: 10.5
O=C(O)Cn1c(=O)ccc2ccccc21 :: -7.7
O=c1[nH]c(=O)n(C2OC(COP(=O)(O)OP(=O)(O)OC3OC(CO)C(O)C(O)C3O)C(O)C2O)cc1F (configuration not stated) :: -15.3
N#CCCN(CCC#N)c1ccc(/C=C2\N=C(COc3ccc(Cl)cc3Cl)OC2=O)cc1 :: 6.8
COc1cc(=O)cc2n(c1=O)CCC2 :: 8.5

Input line: Determine its reported growth inhibition: CCN(CCO)CCCC(C)Nc1ccnc2cc(Cl)ccc12 (configuration not stated)
Output line: -45.9

Input line: Please supply the value of reported growth inhibition for the item O=C1CCC(CC2CCCCC2)CC1
Output line: -17.7

Input line: Please report the measured growth inhibition for CC(=O)NN
Output line: 11.5

Input line: Dear colleague, please send me the reported growth inhibition for O=C(COc1ccc(Cl)c(Cl)c1)NCc1ccc(Cl)cc1 when you can.
Output line: 29.3

Input line: Let me know recorded growth inhibition for COc1ccc(C(C)(C)C#N)cc1 , thanks.
Output line: -10.6

Input line: Output measured growth inhibition for this item: CN(C)c1ccc(N2C(=S)SC(=Nc3ccccc3)C2=Nc2ccccc2)cc1
Output line: -1.5

Input line: Identify measured growth inhibition corresponding to O=C(NC(=S)Nc1ccsc1)c1ccccc1
Output line: -2.15

* * *

Each item that follows carries a reported growth inhibition.
test: NCI Yeast Anticancer Drug Screen. Data for the bub3 strain (AID 167); conditions: S. cerevisiae bub3 mutant strain, at 50.0 µM, stronger effect = higher value
Compounds without any hit were thinned out: in the full panel of roughly 79,000, 15% have a hit.
Report as a plain number; the unit % is understood.

Cc1ccc(S(=O)(=O)C/C(=N\Nc2ccc([N+](=O)[O-])cc2[N+](=O)[O-])c2ccccc2)cc1 :: -0.25
NC(=O)c1cc(OCc2ccccc2)nc2nc(Cl)nc(N)c12 :: -0.8
CS(=O)(=O)OCC1OC(n2ccc(NC(=O)c3ccccc3)nc2=O)CC1OS(C)(=O)=O (stereo not drawn) :: -14.8
O=C1CCC(c2ccccc2)(c2ccccc2)CC1 :: 0.15
c1ccc(COc2ccc(OCc3ccccc3)cc2)cc1 :: -10.2
O=C1CSC(c2ccc(Br)cc2)N1c1nncs1 (stereo not drawn) :: 6.6

Input line: Supply reported growth inhibition belonging to this molecule: CCCCCCCCCCCCCCCCOCC(O)CO (stereo not drawn)
Output line: -17.1

Input line: Item O=C(O)Cc1ccccc1Cl : provide growth inhibition
Output line: 14.8

Input line: Output measured growth inhibition for this item: COc1cc(C(C)S(=O)(=O)O)ccc1O (stereo not drawn)
Output line: 4.9

Input line: Report growth inhibition for COc1ccccc1NC1Oc2cc3c(cc2C(c2cc(OC)c(OC)c(OC)c2)C1C)OCO3 (stereo not drawn)
Output line: -2.8

Input line: Read the entry CCCCCC/C=N\OC(N)=O and write its reported growth inhibition.
Output line: 3.35

Input line: Tell me measured growth inhibition for Cc1ccc(C(C)C)cc1OC(=O)NC1CCCCC1 please.
Output line: -23.4

Input line: Determine from records and report growth inhibition for CC(=O)Nc1cccc(/C=C/C=C/c2cccc([N+](=O)[O-])c2)c1
Output line: 91.3

Input line: Note down growth inhibition recorded for OC(C/C(=N\Nc1ccccc1)c1ccc(Br)cc1)(C(F)(F)F)C(F)(F)F
Output line: 44.9

Input line: Please look at this molecule and report its growth inhibition: C=CCNC(=O)N(CCCCC(NC(C)=O)C(=O)NCc1ccccc1)Cc1ccccc1 (stereo not drawn)
Output line: 16.4

Input line: State its growth inhibition for this molecule: C=C1C(=O)OC2CC(=C)C3CC=C(C)C3CC12 (stereo not drawn)
Output line: 25.8

Input line: Give the reported value of growth inhibition for this record: CCCCOP(=O)(OCCCC)C(c1ccccc1)(c1ccccc1)c1ccccc1
Output line: 5.9

Input line: Indicate its recorded growth inhibition; the molecule in question is C=CCOC(=O)CCC(C#N)(C#N)CCC(=O)OCC=C
Output line: 50.5

Input line: For CCOC(=O)CCCCCCCCCC[N+](CC)(CC)CC(=O)c1ccc(NC(C)=O)cc1 , write its growth inhibition.
Output line: 16.8

Input line: For the molecule COc1cc(Nc2cnc3ccc(C(F)(F)F)cc3n2)cc(OC)c1OC , give its reported growth inhibition.
Output line: -16.9

Input line: Read off the recorded growth inhibition for CC1(C)CS(=O)(=O)CC(C)(C)C(=O)C1=O
Output line: -6

Input line: Give the value of growth inhibition reported for the following: CN1C/C(=C\c2ccc(C(=O)O)cc2)C(=O)/C(=C/c2ccc(C(=O)O)cc2)C1
Output line: -5

Input line: Give growth inhibition for COC(=O)C(CCS(=O)(=O)CC(=O)C(=O)Nc1cccc(C(C)=O)c1)C(=O)OC
Output line: -26.2

* * *

In this section we review reported growth inhibition values for a set of compounds.
test: NCI Yeast Anticancer Drug Screen. Data for the bub3 strain (AID 167); conditions: S. cerevisiae bub3 mutant strain, at 50.0 µM, stronger effect = higher value
This is part of a sample that, as a whole, favours compounds with a hit. Of some 79,000 tested, about 15% had one in any assay.
Entry rule: numbers only, all in %.

Below, each entry is followed by its recorded growth inhibition result.
CC(=O)Nc1ccc(S(=O)(=O)Nc2ccc([N+](=O)[O-])cc2)cc1 :: -31.9
COC(=O)C(=O)c1c(-c2cccnc2)[nH]c2ccccc12 :: 13.2
COC(=O)C1(CC(=O)c2ccc(C)cc2)NC(=S)NC(=O)C1C#N (configuration not stated) :: -34.6
O=C1CCC2=C3C4CCCC5OC6CC(=O)CCC6=C(C6CCCC(OC2C1)C36)C54 (configuration not stated) :: 25.6
CCOC(=O)C(CCSC)(CCSC)C(=O)OCC :: 20.4

Input line: Please give measured growth inhibition of the following entry: ClC1CC/C=C\CC/C=C/CCC1Cl (configuration not stated)
Output line: 29.2

Input line: Given the compound COC(=O)C1(CC(=O)c2ccc(F)cc2)NC(=S)NC(=O)C1C#N (configuration not stated) , write its reported growth inhibition.
Output line: -34

Input line: Please report growth inhibition for the following compound: O=S1(=O)CCC(Br)c2ccccc21 (configuration not stated)
Output line: 8.6

Input line: Please list growth inhibition recorded for the compound Cn1c(Cl)c(C=O)c(=O)n(C)c1=O
Output line: 7

Input line: Provide growth inhibition value for the following compound: CCNC(=O)C1Cc2ccccc2N(CC)C1 (configuration not stated)
Output line: -1.9

Input line: State its growth inhibition: CCCCCCCCCCCCCC(=O)OCC1OC(n2cc(F)c(=O)[nH]c2=O)C(N)C(OC(=O)CCCCCCCCCCCCC)C1O (configuration not stated)
Output line: 11.6

Input line: Identify measured growth inhibition associated with CSc1ccc(NC(=O)c2cccc([N+](=O)[O-])c2C(=O)O)cc1
Output line: 15.2
